- testedTarget: Delta-type opioid receptor (Mus musculus, UniProt P32300)
- Sequence (P32300 whole entry): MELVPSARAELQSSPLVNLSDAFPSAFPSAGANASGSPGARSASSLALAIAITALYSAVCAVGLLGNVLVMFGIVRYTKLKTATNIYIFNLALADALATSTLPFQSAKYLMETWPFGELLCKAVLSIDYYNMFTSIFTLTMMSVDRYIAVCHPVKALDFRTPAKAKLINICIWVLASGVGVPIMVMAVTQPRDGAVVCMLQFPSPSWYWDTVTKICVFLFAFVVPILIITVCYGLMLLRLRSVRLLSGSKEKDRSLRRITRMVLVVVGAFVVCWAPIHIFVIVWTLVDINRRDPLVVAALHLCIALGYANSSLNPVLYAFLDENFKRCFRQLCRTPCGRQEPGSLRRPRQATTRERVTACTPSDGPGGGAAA
- procedureSummary: Displacement of [3H]naltrindole from mouse DOR expressed in CHO cells after […]
# label = true (1) if Ki < 70 nM else false (0)

**Q:** Is Ki strictly under 70 nM for the entry O=C(N[C@H]1CC[C@@]2(O)[C@H]3Cc4ccc(O)c5c4[C@@]2(CCN3CC2CC2)[C@H]1O5)c1cc2ccc([N+](=O)[O-])cc2cn1 ?
**A:** true (1)

**Q:** Is Ki strictly under 70 nM for the entry CN(C)c1ccc2c(c1)CN(C)C(C(=O)N[C@H]1CC[C@@]3(O)[C@H]4Cc5ccc(O)c6c5[C@@]3(CCN4CC3CC3)[C@H]1O6)C2 (stereo not given in full) ?
**A:** true (1)

**Q:** Is Ki strictly under 70 nM for the entry O=C(N[C@H]1CC[C@@]2(O)[C@H]3Cc4ccc(O)c5c4[C@@]2(CCN3CC2CC2)[C@H]1O5)c1cc2cc([N+](=O)[O-])ccc2cn1 ?
**A:** false (0)

* * *

- testedTarget: UniProt P33534
- Sequence (P33534 whole entry): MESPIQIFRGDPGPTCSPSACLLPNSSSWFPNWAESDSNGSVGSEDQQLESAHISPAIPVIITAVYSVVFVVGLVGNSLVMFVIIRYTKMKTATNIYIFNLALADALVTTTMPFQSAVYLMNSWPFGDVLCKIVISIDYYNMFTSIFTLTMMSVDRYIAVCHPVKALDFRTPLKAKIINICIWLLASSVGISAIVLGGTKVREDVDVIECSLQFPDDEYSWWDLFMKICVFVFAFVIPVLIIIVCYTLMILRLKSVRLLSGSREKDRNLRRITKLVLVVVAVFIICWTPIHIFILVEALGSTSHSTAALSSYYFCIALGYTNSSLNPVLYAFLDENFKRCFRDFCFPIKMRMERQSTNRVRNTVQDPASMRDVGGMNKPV
- procedureSummary: Agonist activity at mouse KOR expressed in CHO cells after […] by [35S]GTPgammaS binding assay
- Type: functional, cell-based
Field: EC50. Provide a value for each of the compounds that follow.

**Q:** Lab note: need EC50 for O=C(N[C@H]1CC[C@@]2(O)[C@H]3Cc4ccc(O)c5c4[C@@]2(CCN3CC2CC2)[C@H]1O5)c1cc2ccccc2cn1 on UniProt P33534, anyone have it?
**A:** 10.9 nM

**Q:** Lab note: need EC50 for O=C(N[C@H]1CC[C@@]2(O)[C@H]3Cc4ccc(O)c5c4[C@@]2(CCN3CC2CC2)[C@H]1O5)c1cc2cc([N+](=O)[O-])ccc2cn1 on UniProt P33534, anyone have it?
**A:** 62.6 nM

* * *

- Organism: Mus musculus
- procedureSummary: Selectivity ratio of Ki for mouse KOR to Ki for mouse MOR
Field: Ratio Ki. Provide a value for each of the molecules that follow.
Please give only the number in your answer, with no unit.

**Q:** Need Ratio Ki of O=C(N[C@H]1CC[C@@]2(O)[C@H]3Cc4ccc(O)c5c4[C@@]2(CCN3CC2CC2)[C@H]1O5)c1cc2ccc([N+](=O)[O-])cc2cn1 , thanks.
**A:** 16

**Q:** Need Ratio Ki of N#Cc1nc(C(=O)N[C@H]2CC[C@@]3(O)[C@H]4Cc5ccc(O)c6c5[C@@]3(CCN4CC3CC3)[C@H]2O6)cc2ccccc12 , thanks.
**A:** 131

**Q:** Need Ratio Ki of O=C(N[C@H]1CC[C@@]2(O)[C@H]3Cc4ccc(O)c5c4[C@@]2(CCN3CC2CC2)[C@H]1O5)c1nc(Cl)c2ccccc2c1O , thanks.
**A:** 24

**Q:** Need Ratio Ki of O=C(CCc1cc2ccccc2cn1)N[C@H]1CC[C@@]2(O)[C@H]3Cc4ccc(O)c5c4[C@@]2(CCN3CC2CC2)[C@H]1O5 , thanks.
**A:** 12

**Q:** Need Ratio Ki of CN(C)c1ccc2c(c1)CN(C)C(C(=O)N[C@H]1CC[C@@]3(O)[C@H]4Cc5ccc(O)c6c5[C@@]3(CCN4CC3CC3)[C@H]1O6)C2 (some centres not stated) , thanks.
**A:** 2.5

**Q:** Need Ratio Ki of O=C(Cc1cc2ccccc2cn1)N[C@H]1CC[C@@]2(O)[C@H]3Cc4ccc(O)c5c4[C@@]2(CCN3CC2CC2)[C@H]1O5 , thanks.
**A:** 10

**Q:** Need Ratio Ki of O=C(N[C@H]1CC[C@@]2(O)[C@H]3Cc4ccc(O)c5c4[C@@]2(CCN3CC2CC2)[C@H]1O5)c1ncc2ccccc2n1 , thanks.
**A:** 71

* * *

Field: Ratio Ki. Provide a value for each of the molecules that follow.
- Species on record: Mus musculus
- procedureSummary: Selectivity ratio of Ki for mouse DOR to Ki for mouse MOR

**Q:** Need Ratio Ki of O=C(CNC(=O)c1cc2ccccc2cn1)N[C@H]1CC[C@@]2(O)[C@H]3Cc4ccc(O)c5c4[C@@]2(CCN3CC2CC2)[C@H]1O5 , thanks.
**A:** 0.2

**Q:** Need Ratio Ki of O=C(N[C@H]1CC[C@@]2(O)[C@H]3Cc4ccc(O)c5c4[C@@]2(CCN3CC2CC2)[C@H]1O5)c1cc2ccc([N+](=O)[O-])cc2cn1 , thanks.
**A:** 4.5

**Q:** Need Ratio Ki of CN(C)c1ccc2cc(C(=O)N[C@H]3CC[C@@]4(O)[C@H]5Cc6ccc(O)c7c6[C@@]4(CCN5CC4CC4)[C@H]3O7)ncc2c1 , thanks.
**A:** 20

**Q:** Need Ratio Ki of O=C(N[C@H]1CC[C@@]2(O)[C@H]3Cc4ccc(O)c5c4[C@@]2(CCN3CC2CC2)[C@H]1O5)c1cc2cc([N+](=O)[O-])ccc2cn1 , thanks.
**A:** 4.9

**Q:** Need Ratio Ki of O=C(N[C@H]1CC[C@@]2(O)[C@H]3Cc4ccc(O)c5c4[C@@]2(CCN3CC2CC2)[C@H]1O5)c1ncc2ccccc2n1 , thanks.
**A:** 4.6

* * *

- Organism: Mus musculus
- procedureSummary: Selectivity ratio of Ki for mouse DOR to Ki for mouse MOR
quantityMeasured: Ratio Ki
Please give only the number in your answer, with no unit.

**Q:** Need Ratio Ki of O=C(N[C@H]1CC[C@@]2(O)[C@H]3Cc4ccc(O)c5c4[C@@]2(CCN3CC2CC2)[C@H]1O5)c1nc(Cl)c2ccccc2c1O , thanks.
**A:** 25

**Q:** Need Ratio Ki of N#Cc1nc(C(=O)N[C@H]2CC[C@@]3(O)[C@H]4Cc5ccc(O)c6c5[C@@]3(CCN4CC3CC3)[C@H]2O6)cc2ccccc12 , thanks.
**A:** 10

**Q:** Need Ratio Ki of O=C(Cc1cc2ccccc2cn1)N[C@H]1CC[C@@]2(O)[C@H]3Cc4ccc(O)c5c4[C@@]2(CCN3CC2CC2)[C@H]1O5 , thanks.
**A:** 0.9

**Q:** Need Ratio Ki of O=C(CCc1cc2ccccc2cn1)N[C@H]1CC[C@@]2(O)[C@H]3Cc4ccc(O)c5c4[C@@]2(CCN3CC2CC2)[C@H]1O5 , thanks.
**A:** 2.4

**Q:** Need Ratio Ki of CN1Cc2ccccc2C[C@H]1C(=O)N[C@H]1CC[C@@]2(O)[C@H]3Cc4ccc(O)c5c4[C@@]2(CCN3CC2CC2)[C@H]1O5 , thanks.
**A:** 2.3

**Q:** Need Ratio Ki of COc1cc2cnc(C(=O)N[C@H]3CC[C@@]4(O)[C@H]5Cc6ccc(O)c7c6[C@@]4(CCN5CC4CC4)[C@H]3O7)cc2cc1OC , thanks.
**A:** 4.6

**Q:** Need Ratio Ki of CN(C)c1ccc2c(c1)CN(C)C(C(=O)N[C@H]1CC[C@@]3(O)[C@H]4Cc5ccc(O)c6c5[C@@]3(CCN4CC3CC3)[C@H]1O6)C2 (some centres not stated) , thanks.
**A:** 2.7
